molecular target: human PAC1 receptor (Homo sapiens, UniProt P41586); construct: SHSY-5Y (human neuroblastoma cell line) and RG-2 (rat glioma cell line) cells endogenously express human and rat PAC1 receptors, respectively; endogenous in cells; host or cells: SHSY-5Y human neuroblastoma cells; assay: LANCE Ultra cAMP accumulation antagonist assay in SHSY-5Y cells; assay type: cell-based
Sequence (P41586 21-468): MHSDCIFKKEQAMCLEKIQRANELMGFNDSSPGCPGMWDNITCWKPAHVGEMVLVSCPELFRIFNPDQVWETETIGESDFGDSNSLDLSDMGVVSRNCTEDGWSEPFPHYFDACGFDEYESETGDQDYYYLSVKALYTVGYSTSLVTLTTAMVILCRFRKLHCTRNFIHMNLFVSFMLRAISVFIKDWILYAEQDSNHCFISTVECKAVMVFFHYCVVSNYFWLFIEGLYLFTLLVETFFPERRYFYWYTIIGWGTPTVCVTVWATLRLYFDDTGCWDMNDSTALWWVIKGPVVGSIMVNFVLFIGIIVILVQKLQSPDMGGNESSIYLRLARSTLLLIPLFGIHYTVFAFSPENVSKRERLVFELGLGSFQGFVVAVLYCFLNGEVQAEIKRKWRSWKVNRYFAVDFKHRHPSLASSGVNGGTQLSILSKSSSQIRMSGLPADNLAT
Bridges are numbered along the chain shown (N, C = ends). Where no end group is shown, it is not given here.
Experimental endpoint: IC50

>>> print(df.to_string())
                                  substance  observed_value
0  CDATCHFRKAIDDCQKQAHHSNVPGSVFKACMKQHKKRWRAG-NH2 (disulfide 1-5, 14-31) [compound 124]    0.01 to 1 nM
1  CDATCQFRKAIDDCVYSAWHSNVPGSVFKACMKQKKKEFKAG-NH2 (disulfide 1-5, 14-31) [compound 83]    0.01 to 1 nM
2  CDATCQFRKAIDDCWIVAWHANVPGSVFKACMKQKKKEFKAG-NH2 (disulfide 1-5, 14-31) [compound 129]    0.01 to 1 nM
3  CDATCQFRKAIDDCYYRSWHSNVPGSVFKACMKFRFNVWKAG-NH2 (disulfide 1-5, 14-31) [compound 67]     1 to 100 nM

###

test: in vitro; conditions: rat, plasma
Bridges are numbered along the chain shown (N, C = ends). Where no end group is shown, it is not given here.
Experimental endpoint: remaining at 1 h (%)

In [3]: df
Out[3]:
                                  substance  value_unit  observed_value
0  CDATCQFRKAIDDCHLLAWHANVPGSVFKACMKQKKKEFKAG-NH2 (disulfide 1-5, 14-31) [SEQ ID NO 140]           %            91.4
1  CDATCQFRKAIDDCYYYAMHSNVPGSVWKACMKQKKKEFKAG-NH2 (disulfide 1-5, 14-31) [SEQ ID NO 150]           %            89.7
2  CDATCQFRKAIDDCYYRSWHSNVPGSVFKACMKQKKKEWKAG-NH2 (disulfide 1-5, 14-31) [SEQ ID NO 77]           %             106
3  GCDATCQFRKAIDDCVRQAHHSNVPGSVFKACMKQKKKEWKAGH (disulfide 2-6, 15-32) [SEQ ID NO 88]           %            90.8
4  CDATCQFRKAIDDCARQAHHSNVPGSVFKACMKQKKKEWKAGH (disulfide 1-5, 14-31) [SEQ ID NO 151]           %              87
5  CDATCQFRKAIDDCQKQAHHSNVPGSVFKACMKQKKKEFKAGY (disulfide 1-5, 14-31) [SEQ ID NO 164]           %             113

###

The following substances are shown together with reported IC50 values.
molecular target: human PAC1 receptor (Homo sapiens, UniProt P41586); construct: SHSY-5Y (human neuroblastoma cell line) and RG-2 (rat glioma cell line) cells endogenously express human and rat PAC1 receptors, respectively; endogenous in cells; host or cells: SHSY-5Y human neuroblastoma cells; assay: LANCE Ultra cAMP accumulation antagonist assay in SHSY-5Y cells; type: cell-based;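 also: inhibition of cAMP accumulation evoked by PAC1 agonist at its EC80 in SHSY-5Y cells endogenously expressing receptor, 30 min preincubation then 15 min agonist, TR-FRET readout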
Bridges are numbered along the chain shown (N, C = ends). Where no end group is shown, it is not given here.
Experimental endpoint: IC50

In [3]: df
Out[3]:
                                  substance                              assay_system  observed_value
0  CDATCQFRKAIDDCQKQAHHSNVPGSVFKACMKQKKKEFKAGW (disulfide 1-5, 14-31) [compound 145]  human PAC1 receptor (Homo sapiens, UniProt P41586)    0.01 to 1 nM
1  CDATCQFRKAIDDCFYQAWHSNVPGSVWKACMKFRFNVWKAG-NH2 (disulfide 1-5, 14-31) [compound 55]  human PAC1 receptor (Homo sapiens, UniProt P41586)     1 to 100 nM
2  CDATCQFRKAIDDCDKQAHHSNVPGSVFKACMKQKKKEFQAG-NH2 (disulfide 1-5, 14-31) [compound 169]  human PAC1 receptor (Homo sapiens, UniProt P41586)    0.01 to 1 nM
3  CDATCQFRKAIDDCARQAHHSNVPGSVFKACMKQKKKEWKAGH-NH2 (disulfide 1-5, 14-31) [compound 2]  human PAC1 receptor (Homo sapiens, UniProt P41586)    0.01 to 1 nM
